# Study target: Peroxisome proliferator-activated receptor gamma (Mus musculus, UniProt P37238)
# Sequence (P37238 whole entry): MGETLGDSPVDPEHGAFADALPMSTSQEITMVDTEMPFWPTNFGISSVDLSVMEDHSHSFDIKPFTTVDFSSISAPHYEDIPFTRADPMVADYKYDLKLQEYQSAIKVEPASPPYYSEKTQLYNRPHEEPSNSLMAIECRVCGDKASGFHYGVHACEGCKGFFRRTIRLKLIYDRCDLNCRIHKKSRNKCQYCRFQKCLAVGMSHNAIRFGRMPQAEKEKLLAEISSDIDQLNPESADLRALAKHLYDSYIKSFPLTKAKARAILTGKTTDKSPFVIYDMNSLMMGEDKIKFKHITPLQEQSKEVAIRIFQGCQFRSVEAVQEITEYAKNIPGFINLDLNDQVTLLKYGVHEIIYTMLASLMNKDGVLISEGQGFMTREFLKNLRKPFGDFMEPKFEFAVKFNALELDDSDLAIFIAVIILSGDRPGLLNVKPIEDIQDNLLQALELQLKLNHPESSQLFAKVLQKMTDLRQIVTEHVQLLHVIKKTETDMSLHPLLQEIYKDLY
# Method summary: Partial agonist activity at mouse PPARgamma expressed in CV-1 cells by reporter gene assay
# Type: cell-based
Consider the following compounds and their measured EC50 readings.
Express it in µM; write the number only.

> print(dat)
                                   compound  readout.name  test.value
1  CCCCn1c(-c2ccc3nn(CCC)c(Cc4ccc(-c5ccccc5-c5nn[nH]n5)cc4)c3c2)nc2ccccc21          EC50        0.27

q: Note down EC50 recorded for CCCn1nc2ccc(C(=O)NC(CC)c3ccccc3)cc2c1Cc1ccc(-c2ccccc2C(=O)O)cc1 (configuration not stated)
a: 0.25
